Catalogue of compounds with associated growth
# Test system: EKVX NSCLC
# Test Protocol: NCI-60 one-dose screen, 48 h (100 = growth as untreated, 0 = no growth, -100 = all killed)
# Experimental Setup: 10 µM unless noted
About 83,000 compounds went through this panel and 20% of them were active in at least one assay; those are over-represented in the sample as a whole. Activity calls are given as the source filed them. How the source made its calls: active means growth percent below 10; inactive means the rest.

A selection of reference data follows.
>>> result("COc1cc(-c2nc3sccn3c2-c2ccnc(NCCNS(=O)(=O)c3ccc(Cl)cc3)n2)ccc1F")
"48.8% (inactive)"
>>> result("CN1CCN(C(=O)C(C)(C)c2ccc(C(=O)Nc3cn4cc(-c5ccncc5)ccc4n3)cc2)CC1")
"17.9% (inactive)"
>>> result("COC1=C(C)C(=O)N2[C@@H]1[C@H](c1ccccc1)OC21C=CC(=O)C=C1")
"70.3% (inactive)"
>>> result("CC(=O)c1sc2sc(C(C)=O)c(C)c2c1C")
"42.8% (inactive)"
>>> result("Cc1ccccc1Nc1cc(O)c2c(=O)cc(-c3ccccc3)oc2c1")
"35.5% (inactive)"

Quick one: growth of COc1ccc(C(=O)Cn2c(C(=O)c3ccc(OC)cc3)nc3ccccc32)cc1 ? 73.3% (inactive)

Can you look up the measured growth of Cc1cccc2c1C[C@@]1(C2=O)C(c2ccc(C(C)(C)C)cc2)=NOS1=O (stereo not given in full) for me? 79.2% (inactive)
